Consider compounds characterized by their pIC50 with MAGL (Homo sapiens (Human)).
Sequence (Q99685 whole entry, species assumed): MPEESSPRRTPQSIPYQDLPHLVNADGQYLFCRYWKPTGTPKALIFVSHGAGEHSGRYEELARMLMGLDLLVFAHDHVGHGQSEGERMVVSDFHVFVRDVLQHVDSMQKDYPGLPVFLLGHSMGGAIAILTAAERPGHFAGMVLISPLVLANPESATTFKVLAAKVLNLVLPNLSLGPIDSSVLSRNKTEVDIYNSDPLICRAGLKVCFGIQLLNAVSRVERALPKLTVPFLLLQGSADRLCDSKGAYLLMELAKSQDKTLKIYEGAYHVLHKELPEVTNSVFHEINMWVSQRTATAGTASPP
pIC50 is defined as minus the log10 of a concentration measured in mol/L.

Which pIC50 value belongs to C=S(N)(=O)c1cc(Cl)cc(-c2c3c(nn2C)C(C)N(C(=O)c2cc(F)cc(-c4ccc(=O)[nH]c4)c2Cl)CC3)c1 (stereo not shown) [Example 56] ?
7.92

And for C[C@H]1c2nn(C)c(-c3cc(F)cc(F)c3)c2CCN1C(=O)c1ncn(-c2ccc[nH]c2=O)c1Cl [Example 77] ?
5.84

Now try C[C@@H]1c2nn(C)c(-c3cc(F)cc(F)c3)c2CCN1C(=O)c1cc(F)cc(-c2ccc(=O)[nH]c2)c1Cl [Example 30] .
6.41

Similarly, C[C@H]1c2nn(C)c(-c3cc(F)cc(F)c3)c2CCN1C(=O)c1ncn(-c2ccc(O)nc2)n1 [Example 33] ?
6.79

* * *

Measured log10 of IC50 on MAGL (Homo sapiens (Human)) follows.
Note the log scale: values are log10 of IC50 expressed in nM.

Any idea what its log10 of IC50 is? The compound is C[C@H]1c2nn(C)c(-c3cc(Cl)cc(C4(C(N)=O)CC4)c3)c2CCN1C(=O)c1cc(F)cc(-c2c[nH]c(C#N)c2)c1Cl
3.33

Then this compound: COc1cccc(C(=O)N2CCc3c(nn(C)c3-c3cncc(C(F)(F)F)n3)[C@@H]2C)c1Cl
2.26

Next: CC1c2nn(C)c(-c3cc(Cl)cc(C4(C(N)=O)CC4)c3)c2CCN1C(=O)c1cc(F)cc(OCC2CNC(=O)C2)c1Cl (centres unmarked)
1.62

Entry C[C@H]1c2nn(C)c(-c3cc(F)cc(F)c3)c2CCN1C(=O)c1cc(F)cc(N2CC(S(C)(=O)=O)C2)c1Cl please
1.43

Please give the result for C[C@H]1c2nn(C)c(-c3cc(Cl)cc(C4(S(C)(=O)=O)CC4)c3)c2CCN1C(=O)c1ncn(-c2ccc[nH]c2=O)n1 too.
2.44
